studySystem: Human NMDA (NR1/NR2B) Receptor (Homo sapiens)
Construct: host or cells: HEK293
Sequence (Q13224 27-1484, other chains not shown): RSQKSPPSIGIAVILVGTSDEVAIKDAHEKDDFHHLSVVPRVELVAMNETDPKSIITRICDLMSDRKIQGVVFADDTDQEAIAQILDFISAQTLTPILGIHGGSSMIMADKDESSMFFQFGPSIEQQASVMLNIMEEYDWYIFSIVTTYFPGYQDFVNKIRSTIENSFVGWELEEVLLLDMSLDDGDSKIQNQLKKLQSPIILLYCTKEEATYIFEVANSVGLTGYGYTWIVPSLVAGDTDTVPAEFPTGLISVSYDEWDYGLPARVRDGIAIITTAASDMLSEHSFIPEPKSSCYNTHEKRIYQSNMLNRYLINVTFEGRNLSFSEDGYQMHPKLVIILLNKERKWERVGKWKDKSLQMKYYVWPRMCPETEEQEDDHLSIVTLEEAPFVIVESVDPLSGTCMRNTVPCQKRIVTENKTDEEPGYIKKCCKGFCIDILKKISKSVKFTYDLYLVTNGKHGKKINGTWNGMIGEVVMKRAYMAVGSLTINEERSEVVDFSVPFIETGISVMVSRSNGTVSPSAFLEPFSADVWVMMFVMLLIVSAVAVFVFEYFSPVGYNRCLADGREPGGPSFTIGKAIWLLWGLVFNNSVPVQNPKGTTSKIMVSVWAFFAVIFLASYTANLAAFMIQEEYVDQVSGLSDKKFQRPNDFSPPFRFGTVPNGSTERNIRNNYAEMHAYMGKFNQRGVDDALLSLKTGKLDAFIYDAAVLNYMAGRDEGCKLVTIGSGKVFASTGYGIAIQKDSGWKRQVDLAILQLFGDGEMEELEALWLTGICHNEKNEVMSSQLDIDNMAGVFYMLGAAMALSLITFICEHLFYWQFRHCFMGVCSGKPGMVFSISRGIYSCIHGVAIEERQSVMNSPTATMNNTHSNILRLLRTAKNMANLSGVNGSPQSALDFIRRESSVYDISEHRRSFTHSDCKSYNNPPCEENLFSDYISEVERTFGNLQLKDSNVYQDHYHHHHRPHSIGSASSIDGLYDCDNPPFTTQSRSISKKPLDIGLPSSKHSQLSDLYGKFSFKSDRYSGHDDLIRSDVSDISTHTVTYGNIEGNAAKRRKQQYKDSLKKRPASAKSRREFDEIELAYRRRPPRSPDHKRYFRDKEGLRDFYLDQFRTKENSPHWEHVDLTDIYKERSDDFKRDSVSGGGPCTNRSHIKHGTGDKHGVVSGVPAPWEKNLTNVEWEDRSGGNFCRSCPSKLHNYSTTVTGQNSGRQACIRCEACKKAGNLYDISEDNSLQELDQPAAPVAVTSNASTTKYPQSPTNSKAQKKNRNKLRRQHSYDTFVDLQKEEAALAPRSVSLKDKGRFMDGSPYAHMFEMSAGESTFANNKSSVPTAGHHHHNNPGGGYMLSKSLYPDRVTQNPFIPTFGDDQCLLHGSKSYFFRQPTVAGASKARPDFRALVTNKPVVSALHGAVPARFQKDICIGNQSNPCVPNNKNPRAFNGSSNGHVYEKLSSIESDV
procedureDetails: NR2B Ca2+ influx assay
Format: cell-based
experimentalSetup: 10 μM compound; HEK293 cells expressing GRIN1 and GRIN2B; glutamic acid/glycine-induced Ca2+ influx, Fluo-4 fluorescence; read-out: inhibitory rate (10 μM compound concentration)
Description: Experimental Example 1 NR2B Ca^2+ Influx Assay […]
metricName: inhibition at 10 µM (%)

inhibition at 10 µM for `Cc1ccncc1CNC(=O)c1cnc(C(F)(F)F)c(Cl)c1` is 83

Record summary for `COc1ccc(C(=O)NCc2cnccc2C)cc1F` : reported inhibition at 10 µM = 88

Short answer for `Cc1c(F)cncc1CNC(=O)c1cnc(OC(F)F)c(F)c1` : inhibition at 10 µM was 96

Entry under test: `CCOc1ccncc1CNC(=O)c1ccc(OC(F)F)c(F)c1` . Its inhibition at 10 µM was 95

Looking up `COc1ncncc1CNC(=O)c1cnc(C2CC2)c(F)c1` , I see its inhibition at 10 µM listed as 89

Entry `Cc1ccncc1CNC(=O)c1ccc(OC(F)F)c(F)c1` — recorded inhibition at 10 µM = 88

The compound listed as `CCOc1ncncc1CNC(=O)c1cnc(OC(F)F)c(Cl)c1` shows inhibition at 10 µM equal to 92

For reference, reported inhibition at 10 µM for `COc1ccncc1CNC(=O)c1cnc(OC(F)F)c(F)c1` stands at 94

// `COc1ccncc1CNC(=O)c1ccc(OC(F)(F)F)c(F)c1` : inhibition at 10 µM value = 95

`CCOc1ncc(C(=O)NCc2cncnc2OC2CC2)cc1F` has a reported inhibition at 10 µM of 93
